tested target: TRβ1 DBD-LBD (TR DL, TRβ1ΔAB);RXRα1 DBD-LBD (RXR DL, RXRα1ΔAB) (human;, UniProt P10828;P19793 102-461;126-462, |)
Sequence (P10828 102-461, stated change not applied, chain 1 of 2): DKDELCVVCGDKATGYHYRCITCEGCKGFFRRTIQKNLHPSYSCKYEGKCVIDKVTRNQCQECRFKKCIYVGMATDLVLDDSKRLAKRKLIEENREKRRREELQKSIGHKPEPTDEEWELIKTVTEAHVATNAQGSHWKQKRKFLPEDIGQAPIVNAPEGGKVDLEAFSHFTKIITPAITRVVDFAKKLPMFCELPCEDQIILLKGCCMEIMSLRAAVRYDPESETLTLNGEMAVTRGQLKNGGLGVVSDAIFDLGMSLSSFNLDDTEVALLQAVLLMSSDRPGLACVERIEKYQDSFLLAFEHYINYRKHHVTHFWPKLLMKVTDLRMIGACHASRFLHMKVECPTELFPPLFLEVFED
Sequence (P19793 126-462, stated change not applied, chain 2 of 2): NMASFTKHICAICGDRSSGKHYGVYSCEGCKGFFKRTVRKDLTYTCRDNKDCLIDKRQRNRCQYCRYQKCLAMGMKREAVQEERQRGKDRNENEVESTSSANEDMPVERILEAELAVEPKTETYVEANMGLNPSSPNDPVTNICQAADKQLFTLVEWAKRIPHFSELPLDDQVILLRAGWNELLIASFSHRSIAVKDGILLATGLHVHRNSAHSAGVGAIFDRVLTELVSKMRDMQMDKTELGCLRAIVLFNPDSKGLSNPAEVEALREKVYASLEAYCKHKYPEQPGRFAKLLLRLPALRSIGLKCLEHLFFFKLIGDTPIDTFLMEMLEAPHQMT
measurement protocol: fluorescence anisotropy; T3; Hill n 1.8±0.1; Fluorescence anisotropy: 10 nM DNA, 20 mM Hepes pH 8.0, 50 mM NaCl, 1 mM MgCl2, 3 mM DTT, 5% glycerol, 10°C; agarose gel 1.3% in 0.5x TBE
reported conditions: protein: recombinant;recombinant; tags: His (pET28a);His (pET28a); copies: 1;1; label: 5' fluorescein (FITC) on forward strand; blunt
pKd: −log10 of the molar value.
observed property: pKd

{"columns": ["binder", "measured number"],
 "data": [
  ["TSH NRE (dsDNA) DNA 1: TGGGTCACCACAGCATCTGCTCACCAATGCAAAGT DNA 2: ACTTTGCATTGGTGAGCAGATGCTGTGGTGACCCA", 6.14]
]}
